# Test system: FLAP (5-lipoxygenase activating protein)
# PROTOCOL DETAILS: In vitro binding test: displacement of [3H]-7-chloro-3-(5-((3-fluoropyridin-2-yl)methoxy)-2-methylphenyl)-3,4-dihydroquinazolin-2(1H)-one from Sf9 microsome fractions
# Design: species or system human and mouse
# STUDY CONDITIONS: Sf9 microsome fractions expressing FLAP; 100% = radioligand binding with 10 μM sodium 3-(3-(tert-butylsulfanyl)-1-(4-chlorobenzyl)-5-isopropyl-1H-indol-2-yl)-2,2-dimethylpropanoate, 0% = DMSO; test compound concentration not given
# Procedure: As an assay buffer, 100 mM Tris-HCl, pH 7.5, 140 mM NaCl, 2 mM EDTA, 0.5 mM dithiothreitol, 5% glycerol, 0.05% Tween20 was used. Sf9 microsome fractions expressing human and mouse FLAPs were dispensed by 50 μL to a 96-well plate at 2 μg/mL. […] The GF/B Unifilter plate was dried at 37° C., Microscint 0 was added and measured by TopCount NXT (PerkinElmer). […]
OBSERVABLE: inhibitory rate (%)
Answer with a number only, understood to be in %.

COMPOUND: Cc1cc2c(cc1N1Cc3c(C(F)(F)F)ncc(Br)c3NC1=O)OC(c1ncccc1F)CC2 (centres unmarked)
inhibitory rate (%): 118

Observed inhibitory rate (%) on FLAP (5-lipoxygenase activating protein), entry "CCCCOC(=O)CCc1ccc(OCc2ncccc2F)cc1N1Cc2ccccc2NC1=O" , equals 95

Observed inhibitory rate (%) on FLAP (5-lipoxygenase activating protein), entry "COC(=O)c1ccc(OCc2c(F)cccc2F)cc1N1Cc2ccccc2NC1=O" , equals 83

Observed inhibitory rate (%) on FLAP (5-lipoxygenase activating protein), entry "Cc1ccc(OCc2ncccc2F)cc1N1Cc2c(Cl)ncnc2NC1=O" , equals 62

From: patent US20150299188A1
